system: Aedes aegypti larvae; experiment: larval motility relative to same well at 0 h (fraction); higher = more motile (less active compound), active = 0.4 or less; settings: 10 µM; 24 h
Answer FALSE if larval motility is under 1, and TRUE if it is 1 or more.

Look over these answered cases.
                                   compound  label_class
0  Nc1c(C(=O)NCc2ccco2)c2nc3ccccc3nc2n1CCN1CCCCC1        FALSE
1  NC1(C(=O)O)CCP(=O)(O)CC1 (stereo not drawn)         TRUE
2  COc1ccccc1CN[C@H]1C2CCN(CC2)[C@H]1C(c1ccccc1)c1ccccc1        FALSE

In: Answer whether larval motility of "C[C@@]1(O)[C@H](O)[C@@H](CO)O[C@H]1n1ccc2c(N)ncnc21" is greater than or equal to 1.
Out: FALSE

In: # bool: larval motility of CN1C(=O)C(c2ccccc2)C(=O)N(c2ccccc2)c2cc(C(F)(F)F)ccc21 (stereo not drawn) >= 1
Out: FALSE

In: Evaluate "O=C(NC12CC3CC(CC(C3)C1)C2)c1cc2ccccc2[nH]1" : larval motility at minimum 1?
Out: TRUE

In: Does the compound "CCN1CCN(Cc2nc3ccc([N+](=O)[O-])cc3c(=O)n2-c2ccccc2F)CC1" have recorded larval motility that is 1 or more?
Out: TRUE

====

system: Aedes aegypti larvae; assay: larval motility relative to same well at 0 h (fraction); higher = more motile (less active compound), active = 0.4 or less; conditions: 10 µM; 2 h
Mark fulfilled for reported larval motility of 0.8 or greater; mark not fulfilled for anything smaller.

                                   compound    label_class
0  COc1ccccc1CN[C@H]1C2CCN(CC2)[C@H]1C(c1ccccc1)c1ccccc1      fulfilled
1  C[C@@]1(O)[C@H](O)[C@@H](CO)O[C@H]1n1ccc2c(N)ncnc21  not fulfilled
2  O=C(NC12CC3CC(CC(C3)C1)C2)c1cc2ccccc2[nH]1  not fulfilled
3         COc1cc(C(C)(C)CCCC(C)C)cc(OC)c1OC      fulfilled

In: Decide: is the reported value of larval motility for C[N+]1(C)CCCC(OC(=O)C(O)(c2ccccc2)c2ccccc2)C1 (configuration not stated) equal to or greater than 0.8?
Out: not fulfilled
